- system.tested: UniProt:Q9Y2R2
- Sequence (Q9Y2R2 whole entry): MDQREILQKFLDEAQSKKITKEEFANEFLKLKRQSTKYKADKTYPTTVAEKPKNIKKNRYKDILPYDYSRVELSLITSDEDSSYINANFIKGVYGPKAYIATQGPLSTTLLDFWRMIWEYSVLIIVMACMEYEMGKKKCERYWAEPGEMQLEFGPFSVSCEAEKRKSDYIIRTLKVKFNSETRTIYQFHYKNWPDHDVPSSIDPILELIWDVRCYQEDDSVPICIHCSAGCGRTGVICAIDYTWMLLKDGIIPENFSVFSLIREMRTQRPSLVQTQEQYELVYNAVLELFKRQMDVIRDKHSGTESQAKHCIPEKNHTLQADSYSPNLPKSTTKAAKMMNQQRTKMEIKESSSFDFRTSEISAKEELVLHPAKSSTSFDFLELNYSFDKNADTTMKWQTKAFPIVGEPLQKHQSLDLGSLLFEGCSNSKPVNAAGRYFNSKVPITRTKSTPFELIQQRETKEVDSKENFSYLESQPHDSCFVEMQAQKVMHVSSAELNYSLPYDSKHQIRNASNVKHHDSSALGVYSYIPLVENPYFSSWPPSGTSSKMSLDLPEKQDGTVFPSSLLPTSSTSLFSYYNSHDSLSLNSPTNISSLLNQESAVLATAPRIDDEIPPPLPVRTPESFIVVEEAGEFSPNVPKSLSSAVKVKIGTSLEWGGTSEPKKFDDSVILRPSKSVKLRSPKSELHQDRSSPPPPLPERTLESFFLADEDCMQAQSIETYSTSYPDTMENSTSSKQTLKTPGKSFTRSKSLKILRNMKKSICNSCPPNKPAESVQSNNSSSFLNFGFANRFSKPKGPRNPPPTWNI
- test.summary: PubChem AID 2140
quantity.name: pIC50
In simple prose, pIC50 is minus the logarithm base ten of a concentration in moles per litre.

Quick note, pIC50 for `CCOc1ccc2nc(NC(=O)CSc3cc(O)c4c(C)c(C)sc4n3)sc2c1` landed at 4.36
